The measured values listed here are drawn from PubChem BioAssay AID330.

Reported values of T/C for individual entries
- System: P388 leukemia ip, CD2F1 mice, survival T/C
- experiment: NCI In Vivo Anticancer Drug Screen. Data for tumor model P388 Leukemia (intraperitoneal) in CD2F1 (CDF1) mice
- assay_context: endpoint: median survival time; dose: 50.0 mg/kg/injection; schedule: Q01DX005 (ip); vehicle: saline with Tween-80; higher = longer survival
Toxic doses and inconclusive results are not listed.

Below, 5 compounds whose answers are already recorded.
CCN(CC)C(=S)Cl :: 107 % of control
O=C1CN(c2cccc(Cl)c2)C(=O)CN1/N=C/c1ccc[nH]1 :: 92 % of control
Cc1cc(C2=CSC3=NCCN23)ccc1Cl :: 107 % of control
c1ccc2c(c1)NC(c1ccc3c(c1)Sc1cc(C4Nc5ccccc5N4)ccc1O3)N2 :: 95 % of control
O=C1CCSC(=O)N1c1ccccc1 :: 108 % of control

Fill in the blank: the reported T/C of COC(=O)c1c2cccc(C)c2nc2c(C)cccc12 is ____.
107 % of control

Fill in the blank: the reported T/C of COc1ccccc1C1c2cc3c(cc2OC(C)(O)C1C)OCO3 (centres undefined) is ____.
100 % of control

Fill in the blank: the reported T/C of Cc1c(NC(=S)Nc2ccccc2)c(=O)n(-c2ccccc2)n1C is ____.
93 % of control

Fill in the blank: the reported T/C of CCOC(=O)c1n[nH]c(C)c1C/C(=N/O)c1ccccc1 is ____.
103 % of control
